The entries below are paired with their reported DC50.
target-of-assay: ferroportin (Homo sapiens, UniProt Q9NP59)
Sequence (Q9NP59 1-571): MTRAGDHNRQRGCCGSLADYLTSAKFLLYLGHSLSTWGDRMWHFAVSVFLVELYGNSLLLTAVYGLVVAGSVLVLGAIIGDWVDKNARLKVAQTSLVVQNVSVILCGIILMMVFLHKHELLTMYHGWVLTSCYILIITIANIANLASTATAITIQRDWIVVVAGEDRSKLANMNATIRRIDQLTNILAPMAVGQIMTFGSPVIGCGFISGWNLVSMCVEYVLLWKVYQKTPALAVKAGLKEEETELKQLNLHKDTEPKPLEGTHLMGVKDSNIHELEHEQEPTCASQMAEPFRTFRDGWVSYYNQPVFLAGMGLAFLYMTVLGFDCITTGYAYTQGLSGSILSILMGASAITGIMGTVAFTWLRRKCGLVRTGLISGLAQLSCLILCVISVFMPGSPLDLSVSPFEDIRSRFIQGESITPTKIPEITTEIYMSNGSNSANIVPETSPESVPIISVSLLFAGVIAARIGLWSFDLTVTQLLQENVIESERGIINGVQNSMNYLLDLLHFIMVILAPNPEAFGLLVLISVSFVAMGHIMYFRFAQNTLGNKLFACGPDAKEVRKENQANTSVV
test-protocol: FPN activity assay: ferroportin-GFP internalization/degradation in HEK293 cells
Type: cell-based
Design: expressed in transfected cells
condition-set: Table 6E; ferroportin-GFP internalization/degradation, at least 18 hours incubation; read-out: FPN IC50
Experimental: Following internalization, the ferroporin protein is degraded. A retro inverse peptide is a peptide with a reversed sequence in all D amino acids. An example is that Hy-Glu-Thr-His-NH2 becomes Hy-DHis-DThr-DGlu-NH2. The EC50 of these reference compounds for ferroportin internalization/degradation was determined according to the FPN activity assay described above. These peptides served as control standards.
Positions of bridges follow the written chain, without caps; N, C: chain ends. Non-standard residues stand in square brackets, D forms with d. Residues, ends and D or L forms follow the SMILES beside them. Groups on a side chain read outwards from the residue. *: point of attachment. X1 = C[N+](C)(CCNC(=O)CCCCCCCCCCCCCCCCC(=O)O)CC(=O)*; Bip = N[C@@H](Cc1ccc(-c2ccccc2)cc1)C(=O)O; Dip = N[C@H](C(=O)O)C(c1ccccc1)c1ccccc1; NMeF = CN[C@@H](Cc1ccccc1)C(=O)O; NMeT = CN[C@H](C(=O)O)[C@@H](C)O; NMeK = CN[C@@H](CCCCN)C(=O)O; Isovaleryl = CC(C)CC(=O)*; Ahx = NCCCCCC(=O)O

Previously resolved entries follow.
{"compound": "COC(=O)CC[C@H](NC(=O)CC(C)C)C(=O)N(C)[C@H](C(=O)N[C@@H](Cc1c[nH]cn1)C(=O)N[C@H](C(=O)N1CCC[C@H]1C(=O)N[C@H]1CSSC[C@@H](C(=O)N(C)[C@@H](Cc2ccccc2)C(N)=O)NC1=O)C(c1ccccc1)c1ccccc1)[C@@H](C)O [compound 184] (Isovaleryl-E(OMe)[NMeT]H[Dip]PCC[NMeF]-NH2; disulfide 6-7)", "DC50": "> 500 nM"}
{"compound": "CC(C)CC(=O)N[C@@H](CCC(=O)O)C(=O)N[C@H](C(=O)N[C@@H](Cc1c[nH]cn1)C(=O)N[C@H](C(=O)N1CCC[C@H]1C(=O)N[C@H]1CSSC[C@@H](C(=O)N(C)[C@@H](CCCCNC(=O)CCCCCNC(=O)C[N+](C)(C)CCNC(=O)CCCCCCCCCCCCCCCCC(=O)O)C(=O)N[C@@H](Cc2ccc(-c3ccccc3)cc2)C(=O)N[C@H](CCCCN)C(N)=O)NC1=O)C(c1ccccc1)c1ccccc1)[C@@H](C)O [compound 183] (Isovaleryl-ETH[Dip]PCC[NMeK]([Ahx-X1])[Bip][dK]-NH2; disulfide 6-7)", "DC50": "10 to 100 nM"}

// below: DC50 requested for another compound
Specify reported DC50 for the compound shown: COC(=O)CCC(CCCC(C)C)C(=O)N[C@H](C(=O)N[C@@H](Cc1c[nH]cn1)C(=O)N[C@H](C(=O)N1CCC[C@H]1C(=O)N[C@H]1CSSC[C@@H](C(=O)N(C)[C@@H](CCCCNC(=O)CCCCCNC(=O)C[N+](C)(C)CCNC(=O)CCCCCCCCCCCCCCCCC(=O)O)C(=O)N[C@H](C(=O)N[C@H](CCCCN)C(N)=O)C(c2ccccc2)c2ccccc2)NC1=O)C(c1ccccc1)c1ccccc1)[C@@H](C)O (single isomer, unassigned) [compound 138]
10 to 100 nM

Numbers sourced from patent US20250277012A1.
